Where do these numbers come from? They come from patent US20250163002A1.

Tested on: myeloma cell RPMI-8226
Test: In vitro proliferation inhibition, RPMI-8226
Assay type: cell-based
Settings: unit inferred
Readout Name: IC50 (µM)

compound="CON=C1c2ccccc2C(=O)c2c1[n+](C)cn2C.[I-] [Compound 123]" readout_name=IC50 recorded_value=90.9
compound="CCON=C1c2ccccc2C(=O)c2c1[n+](C)cn2C.[I-] [Compound 124]" readout_name=IC50 recorded_value=99.2
compound="Cn1c[n+](C)c2c1C(=O)c1ccccc1C2=NOCc1ccccc1.[I-] [Compound 125]" readout_name=IC50 recorded_value=89

---

Test system: L929
Assay: In vitro cell proliferation inhibition test (MTT), L929
Format: cell-based
Conditions: 24 h or 48 h after addition, unit inferred
Measured IC50 values are reported for all entries that follow.
Readout Name: IC50 (µM)

molecule=CC[n+]1cn(C)c2c1C(=NOC)c1ccccc1C2=O measured_target=L929 censoring_qualifier== recorded_value=85.2
molecule="Cn1c[n+](C)c2c1C(=O)c1ccccc1C2=NOCc1ccccc1 [Compound 139]" measured_target=L929 censoring_qualifier== recorded_value=19.9
molecule=Cn1c[n+](C)c2c1C(=O)c1cc3ccccc3cc1C2=NOCc1ccc([N+](=O)[O-])cc1 measured_target=L929 censoring_qualifier== recorded_value=89.6
molecule=CCON=C1c2ccccc2C(=O)c2c1[n+](C)cn2C.[I-] measured_target=L929 censoring_qualifier== recorded_value=4.6
molecule=C[n+]1cn(Cc2ccccc2F)c2c1/C(=N/O)c1ccccc1C2=O measured_target=L929 censoring_qualifier== recorded_value=27.3
molecule=COCCn1c[n+](C)c2c1C(=O)c1ccccc1/C2=N\O measured_target=L929 censoring_qualifier== recorded_value=6.64
molecule=COCCO/N=C1\c2ccccc2C(=O)c2c1[n+](C)cn2C measured_target=L929 censoring_qualifier== recorded_value=46.6
molecule=C[n+]1cn(-c2cccc(F)c2)c2c1/C(=N/O)c1ccccc1C2=O measured_target=L929 censoring_qualifier=> recorded_value=100
molecule=CC(C)Cn1c[n+](C)c2c1C(=O)c1ccccc1/C2=N\O measured_target=L929 censoring_qualifier== recorded_value=57.4
molecule=C[n+]1cn(-c2ccc(F)c(Br)c2)c2c1/C(=N/O)c1ccccc1C2=O measured_target=L929 censoring_qualifier=> recorded_value=100
molecule=C[n+]1cn(C(C)(C)C)c2c1/C(=N/O)c1ccccc1C2=O measured_target=L929 censoring_qualifier== recorded_value=38.9
molecule=CCCCn1c[n+](C)c2c1C(=O)c1ccccc1C2=NOCc1ccccc1 measured_target=L929 censoring_qualifier== recorded_value=61
molecule=CCCCn1c[n+](CC)c2c1C(=O)c1ccccc1C2=NOC measured_target=L929 censoring_qualifier=> recorded_value=100
molecule=CON=C1c2ccccc2C(=O)c2c1[n+](C)cn2C.[I-] measured_target=L929 censoring_qualifier== recorded_value=3.8
molecule=Cn1c[n+](C)c2c1C(=O)c1ccccc1C2=NOCc1c(F)c(F)c(F)c(F)c1F measured_target=L929 censoring_qualifier== recorded_value=9.7
molecule="CCC(C)Cn1c[n+](C)c2c1C(=O)c1ccccc1/C2=N\\O (stereo not drawn)" measured_target=L929 censoring_qualifier== recorded_value=74
molecule=COc1ccc(-n2c[n+](C)c3c2C(=O)c2ccccc2/C3=N\O)cc1 measured_target=L929 censoring_qualifier=> recorded_value=100
molecule=Cn1c[n+](C)c2c1C(=O)c1ccccc1C2=NOCc1ccc(C(F)(F)F)cc1 measured_target=L929 censoring_qualifier== recorded_value=4.03
